test system: A549/ATCC NSCLC; test: NCI-60 one-dose screen, 48 h (100 = growth as untreated, 0 = no growth, -100 = all killed); details: 10 µM
About 83,000 compounds went through this panel and 20% of them were active in at least one assay; those are over-represented in the sample as a whole.
Kindly return Satisfied if reported growth is no lower than 80%; return Not satisfied if it is lower.

>  <compound>
N#Cc1ncc(Br)c(NC2CCCCCC2)n1

>  <label>
Satisfied

$$$$
>  <compound>
Clc1cc2c(c(CSc3nc4ccccc4n4cccc34)c1)OCOC2

>  <label>
Not satisfied

$$$$
>  <compound>
COc1cc(Nc2ccnc(NCCNc3ccnc4cc(Cl)ccc34)n2)cc(OC)c1

>  <label>
Not satisfied

$$$$
>  <compound>
CN(C)CC(O)c1ccc2cc(Br)c3ccccc3c2c1 (stereo not given)

>  <label>
Not satisfied

$$$$
>  <compound>
O=C(Nc1ccncc1)C(=O)c1cn(S(=O)(=O)c2cccc(Cl)c2)c2ccccc12

>  <label>
Not satisfied

$$$$
>  <compound>
COc1ccc(NC(=O)Cc2nc3nc4sc(C)c(C)c4c(=O)n3[nH]2)cc1

>  <label>
Satisfied

$$$$
>  <compound>
O=S(=O)(Nc1ccccn1)c1ccc(N=Nc2ccc(O)c3ncccc23)cc1

>  <label>
Not satisfied

$$$$
>  <compound>
Cc1ccc(C(=O)N2C/C(=C/c3ccccc3)C(=O)/C(=C/c3ccccc3)C2)cc1

>  <label>
Satisfied

$$$$
>  <compound>
N=C(N)c1ccc(-c2ccc(-c3cccs3)s2)cc1

>  <label>
Not satisfied

$$$$
>  <compound>
O=C(Nc1cccc(-n2cc(-c3ccncc3)c(-c3ccc(O)c(Cl)c3)n2)c1)c1cccc(C(F)(F)F)c1

>  <label>
Not satisfied

$$$$
>  <compound>
NC1=NC(=O)C(c2ccccc2)(c2ccccc2)S1

>  <label>
Satisfied

$$$$
>  <compound>
CC(C)(C#N)Nc1ccccc1

>  <label>
Satisfied

$$$$
>  <compound>
COc1ccc(-c2nn(-c3cccc(NC(=O)Nc4cccc(C(F)(F)F)c4)c3)cc2-c2ccncc2)cc1Cl

>  <label>
Not satisfied

$$$$
>  <compound>
NC1(C(=O)O)CSSC1

>  <label>
Not satisfied

$$$$
>  <compound>
Nc1ccc2cc(S(=O)(=O)O)cc(O)c2c1N=Nc1ccc(F)cc1

>  <label>
Satisfied

$$$$
>  <compound>
O=C(CCCCC(=O)Nc1ccc2c(c1)/C(=C/c1ccc[nH]1)C(=O)N2)NO

>  <label>
Satisfied

$$$$
>  <compound>
O=[N+]([O-])c1ccc(Oc2cccnc2)c([N+](=O)[O-])c1

>  <label>
Satisfied

$$$$
>  <compound>
CCOC(=O)C1CCc2c(ccc3ccccc23)N1CCC#N (stereo not given)

>  <label>
Satisfied

$$$$
>  <compound>
CC(=O)c1cc(Br)ccc1O

>  <label>
Satisfied

$$$$
>  <compound>
COc1ccc2nc3cc(Cl)ccc3c(NCCNCC(C)O)c2c1 (stereo not given)

>  <label>
Not satisfied

$$$$
>  <compound>
COc1ccc(-c2nc3ncccn3c2-c2nnc(-c3ccc(F)cc3)o2)cc1

>  <label>
Satisfied

$$$$
>  <compound>
Cc1cccc(Cl)c1NC(=O)c1ccc2nc(NC(=O)NC3CCN(C)CC3)sc2c1

>  <label>
Satisfied

$$$$
>  <compound>
Cn1c([N+](=O)[O-])cnc1/C=C1\Oc2cc(Cl)ccc2C1=O

>  <label>
Not satisfied

$$$$
>  <compound>
COc1ccc2c(c1)O/C(=C\c1ccc([N+](=O)[O-])s1)C2=O

>  <label>
Not satisfied

$$$$
>  <compound>
CCOC(=O)C1(CC(C)C)CCOC1=O (stereo not given)

>  <label>
Satisfied

$$$$
>  <compound>
Nc1nc(Nc2ccccc2)n[nH]1

>  <label>
Not satisfied

$$$$
>  <compound>
CCCCCCc1cc(N=Nc2ccc(S(=O)(=O)Nc3cc(C)nc(C)n3)cc2)c(O)cc1O

>  <label>
Satisfied

$$$$
>  <compound>
Cc1ccc(C(=O)Nc2cccc(F)c2)cc1NC(=O)C1(c2ncnc3[nH]ccc23)CC1

>  <label>
Satisfied

$$$$
>  <compound>
Fc1ccc(-c2nnc(-c3c(-c4ccc(F)cc4)nc4ccccn34)o2)cc1

>  <label>
Not satisfied

$$$$
>  <compound>
CN(C)Cc1cn(-c2ncc(-c3ccc(C(F)(F)F)cc3)c(NC3CCCCCC3)n2)nn1

>  <label>
Satisfied

$$$$
>  <compound>
COc1ccc(-c2cc(-c3cccc(NS(C)(=O)=O)c3)nc(N)c2C#N)cc1

>  <label>
Not satisfied

$$$$
>  <compound>
CC(=O)c1nc2ccccc2n1CCN1CCN(C)CC1

>  <label>
Not satisfied

$$$$
>  <compound>
CN(C)CCNC(=O)c1cccn2c(=O)c3cc4ccccc4cc3nc12

>  <label>
Not satisfied

$$$$
